B1: PTPN9 (parent)
chain: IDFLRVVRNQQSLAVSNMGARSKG

variants of: B1; test: protein stability index of a GFP-peptide fusion (GPS, HEK-293T) (PSI 1-6); higher = more stable; details: c terminus: a fixed tail appended;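 note: lentivirally expressed fusions sorted by FACS into six bins by GFP to DsRed ratio, PSI derived from sequencing read proportions per bin multiplied by bin number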
Each entry below lists one item and its recorded protein stability index value.

Dear colleague, I am looking for the recorded protein stability index of the following variant: F3Q 3.89

Dear colleague, I am looking for the recorded protein stability index of the following variant: N17G 2.21

Dear colleague, I am looking for the recorded protein stability index of the following variant: R8A 2.54

Dear colleague, I am looking for the recorded protein stability index of the following variant: M18N 3.06

Dear colleague, I am looking for the recorded protein stability index of the following variant: L13W 2.72

Dear colleague, I am looking for the recorded protein stability index of the following variant: A14E 1.95
